Quick reference: cytotoxicity at 70.5 h of the listed items.
Assay: Human HepG2 cell viability assay in 384 well format
Format: toxicity, cell-based
Parameters: dose 125 nL, time 70.5 hour; concentration not given beside the values
Conditions: HepG2 cells, read-out: Inhibition

compound: CCN1CCn2c(C)cnc2C12CCN(C(=O)N(C)C)CC2
display_unit: %
cytotoxicity at 70.5 h: -9.01

compound: Cc1nc2c(c(N3CCN(c4ncccc4C(N)=O)CC3)n1)CCNC2
display_unit: %
cytotoxicity at 70.5 h: -3.51

compound: Cn1cc(-c2nnc3sc(C4CCC4)nn23)cn1
display_unit: %
cytotoxicity at 70.5 h: -12.3

compound: O=C(CCNC(=O)c1ccoc1)Nc1cccc(F)c1
display_unit: %
cytotoxicity at 70.5 h: -6.83

compound: CC(=O)c1cccc(NCC(=O)NC(N)=O)c1
display_unit: %
cytotoxicity at 70.5 h: 27.4

compound: Cc1ncc(C(=O)N2CCCC(n3nc(C)nc3C)C2)c(C(C)C)n1 (stereo unspecified)
display_unit: %
cytotoxicity at 70.5 h: -4.64
